- test.protocol: yeast display, Sf9 membrane polyspecificity reagent, FACS + sequencing; frameworks hold sequencing errors
measured.parameter: polyreactivity (PSR sort gate)

Some solved entries appear below for comparison.
# seq.text, polyreactivity (PSR sort gate)
data = [
    ("QVQLVESGGGLVQAGGSLRLSCAASGSIFGYYAMGWYRQAPGKERELVAAISSSGASTYYADSVKGRFTISRDNAKNTVYLQMNSLKPEDTAVNYCNAARRYPTRGGYWGQGTQVTVSS", "high polyreactivity"),
    ("QVQLVDSGGGLVQAGGSLRLSCAASGLTFTRYAMGWYRQAPGKERELVAAISKNGGSTYYADSVKGRFTISRDNAKNTVYLQMNSLKPAETAVYYCAARRYGPGRYPEDYWGQGTQVTVSS", "high polyreactivity"),
    ("QVQLVESGGGLVQAGGTLRLSCAASGRILYLNAMGWYRQAPGKEREFVAAISKSGGSTYYADSVKGRFTISRDNAMNSVYLQMNSLKPEDTAVYYCATRFRSAEYDYWGQGTQVTVSS", "low polyreactivity"),
    ("QVHLVESGGGLVQAGGSLRLSCAASGSIFRKYAMGWYRQAPGKERELLAAISVSGGSTYYADSVKGRFTISRDNAKNTVYLQMNSLNPEDTAVYYCAADSGPFNRYAPRGYWGQGTQVTVSS", "low polyreactivity"),
]

Consider now this further sequence.
QUERY: Return reported polyreactivity (PSR sort gate). Input sequence: QVQLVESGGGLVQAGGSLRLSCAASGSIFYTYAMGWYRQAPGKERELVAAISRSGGSTYYADSVKGRFTISRDNAKNTVYLQMNSLKPEDTAVYYCAAVSYRGRGYWGQGTQVTVSS
RESULT: high polyreactivity

* * *

- test.protocol: yeast display, Sf9 membrane polyspecificity reagent, FACS + sequencing; frameworks hold sequencing errors
measured.parameter: polyreactivity (PSR sort gate)

Some solved entries appear below for comparison.
# seq.text, polyreactivity (PSR sort gate)
records = [
    ("QVQHVESGGGLVQAGGSLRLSCGASGRIFRRYAMGWYSLAAVKEREFVAAISYGGGSTYYADSVKGRFTISRDNAKNTVYLQMNSLKPEDSAVYYCNADVPKSLLLYYPWGYGYWGQGTQVTVSS", "low polyreactivity"),
    ("QVQLVESGGGLVQAGGSLRLSCAASGSIFWNNAMGWYRQAPGKERELVAAISKSGTRTYYADSVKGRFTISRDNAKNTFYLQMNSLKPEDTAVYYCAKDPYGRLQPRPRFGYWGQGTQVTVSS", "high polyreactivity"),
    ("QVQLVESGGGLVQAGGSLRLSCAASGRILAPYAMGWYRQAPGKERELVAAISASGGTTYYADSVKGRFTISRDNAKNTVYLQMNSLKPEDTAVYYCNARWSPGNLRYGREGDYWGQGTQVTVSS", "high polyreactivity"),
    ("QVQLVESGGGLVQAGGSLRLSCAASGLIFSFYALGWYRQAPGKERELVAAINRSGGSTYYADSVKGRFTISRDNSKNTVYLQMNSLKPEDTAVYYCAARNAFGTYYYWGQGTQVTVSS", "high polyreactivity"),
]

Consider now this further sequence.
QUERY: Return reported polyreactivity (PSR sort gate). Input sequence: QVQLVESGGGLVQAGGTLRLSCAACGRTFPINAMAWYRQAPGKERELVASIRWTDGTTYYADSVKGRFTISRDNAKNTVYLQMNSLKPEDTAVYYCAADAEGSASKYDYWGQGTQVTVSS
RESULT: low polyreactivity
